Cited source: patent US20240108766A1

Listing of recorded Complex Half Life by entry.
Target: T1, human LRRC15 extracellular domain with C-terminal His tag (human, UniProt Q8TF66 22-538)
T1 construct: Recombinant, made in HEK293; the entry holds the extracellular domain and the His tag; SPR analyte; also called TPP-1545; hLRRC15 CT-His
T1 sequence: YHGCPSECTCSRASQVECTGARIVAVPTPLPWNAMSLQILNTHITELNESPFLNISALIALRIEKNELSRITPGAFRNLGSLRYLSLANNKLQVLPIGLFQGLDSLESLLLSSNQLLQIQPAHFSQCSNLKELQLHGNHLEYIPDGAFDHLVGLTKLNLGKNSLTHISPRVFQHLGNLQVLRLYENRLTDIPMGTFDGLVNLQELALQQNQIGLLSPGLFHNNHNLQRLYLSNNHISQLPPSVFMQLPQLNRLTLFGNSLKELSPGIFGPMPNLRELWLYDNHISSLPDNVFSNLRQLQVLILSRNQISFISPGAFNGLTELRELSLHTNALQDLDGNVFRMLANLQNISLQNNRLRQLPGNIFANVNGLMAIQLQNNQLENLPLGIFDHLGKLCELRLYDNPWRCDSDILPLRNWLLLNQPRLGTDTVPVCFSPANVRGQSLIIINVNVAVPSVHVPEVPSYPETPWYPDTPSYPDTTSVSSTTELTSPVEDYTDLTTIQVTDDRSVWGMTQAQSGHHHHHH
Assay: calculated from SPR kd, 37°C
Respond with the bare value in min.

{"BINDER": "TPP-14389 (antibody, human IgG1, kappa, V domains shown, also called 13612-rec02-hIgG1Kappa) VH: EVQLLESGGGLVQPGGSLRLSCAASGFTFSGYMMSWVRQAPGKGLEWVSGIYPSPGYTYYADSVKGRFTISRDNSKNTLYLQMNSLRAEDTAVYYCAREKASDLFGSYSEALDYWGQGTLVTVSS VL: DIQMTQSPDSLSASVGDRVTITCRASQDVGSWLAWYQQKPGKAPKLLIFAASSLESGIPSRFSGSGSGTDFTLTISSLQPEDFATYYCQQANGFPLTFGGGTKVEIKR", "Complex Half Life (min)": 0.6}

Need Complex Half Life, item TPP-17421 (antibody, human IgG1, kappa, V domains shown, also called 438H-M306-C11-hIgG1Kappa) VH: EVQLVQSGAEVKKPGASVKVSCKASGYKFSSYWIEWVKQAPGQGLEWIGEILPGSDWTNYNEKFKDRATFTSDTSINTAYMELSRLRSDDTAVYYCARDRGNYRAWFQYWGQGTLVTVSS VL: DIQMTQSPSSLSASVGDRVTITCRASQSISSYLNWYQQKPGGAPKFLIYYASSLQSGVPSRFSGSGSGTDYTLTISSLQPEDFATYYCQQGLELPWTFGGGTKVEIKR
64.2

// query: TPP-14392 (antibody, human IgG1, kappa, V domains shown, also called 13612-rec05-hIgG1Kappa) VH: EVQLLESGGGLVQPGGSLRLSCAASGFTFSGYMMSWVRQAPGKGLEWVSGIYPSPGYTYYADSVKGRFTISRDNSKNTLYLQMNSLRAEDTAVYYCAREKASDLSGSYSEALDYWGQGTLVTVSS VL: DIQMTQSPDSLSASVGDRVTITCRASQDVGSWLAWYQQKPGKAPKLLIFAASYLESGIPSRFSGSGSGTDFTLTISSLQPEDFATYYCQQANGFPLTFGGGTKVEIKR
2.3

Then what about the binder TPP-12942 (antibody, human IgG1, kappa, V domains shown, Prior art humanized IgG1 kappa antibody, used as comparator; also called huM25; huM25-hIgG1Kappa) VH: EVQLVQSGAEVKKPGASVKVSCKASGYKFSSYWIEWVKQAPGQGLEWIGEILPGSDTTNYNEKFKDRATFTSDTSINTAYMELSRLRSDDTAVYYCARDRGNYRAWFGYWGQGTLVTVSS VL: DIQMTQSPSSLSASVGDRVTITCRASQDISNYLNWYQQKPGGAVKFLIYYTSRLHSGVPSRFSGSGSGTDYTLTISSLQPEDFATYFCQQGEALPWTFGGGTKVEIKR ?
1.6
